Data credit: patent US20210301005A1

pKd reference
Molecular target: T1, human TGFβ2, mature receptor-binding domain (human, UniProt P09858 303-414 (pig entry), The mature TGFβ2 is a disulfide-linked homodimer of this 112-residue chain. The 4A11 epitope spans both monomers (p-1207).)
T1 construct: Peprotech; also called TGFb2
T1 sequence: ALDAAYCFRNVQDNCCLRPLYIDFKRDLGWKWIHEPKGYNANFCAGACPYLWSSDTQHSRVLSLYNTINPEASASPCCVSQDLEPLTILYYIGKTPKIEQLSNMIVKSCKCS
Test: BIAcore T200
pKd: −log10 of the molar value.

# Binder, pKd
records = [
    ("h4A11.v7.19 (antibody, human IgG1, kappa, N297G, V domains shown) VH: EVQLQESGPGLVKPSETLSLTCTVTGFSLSSYTVNWIRQPAGKGLEWIGYISYGGSAYYASWANGRVTISKDTSQVSLKLSSVTAADTAVYFCARHMQVGGAPTGSMAAFDPWGQGTLVTVSS VL: EIVLTQSPGTLSLSPGERATLSCQSSQSVYNNNYLSWFQQKPGQAPRLLIYGASTLTSGIPDRFSGSGSGTDFTLTISRLEPEDFAVYYCAGGYSGSSDKYAFGGGTKVEIKR", 12.00),
    ("h4A11.v7.18 (antibody, human IgG1, kappa, N297G, V domains shown) VH: EVQLQESGPGLVKPSETLSLTCTVTGFSLSSYTVNWIRQPAGKGLEWIGYISYGGSAYYASWANGRVTISKDTSKNQVSLKLSSVTAADTAVYFCARHMQVGGAPTGSMAAFDPWGQGTLVTVSS VL: EIVLTQSPGTLSLSPGERATLSCQSSQSVYNNNYLSWFQQKPGQAPRLLIYGASTLTSGIPDRFSGSGSGTDFTLTISRLEPEDFAVYYCAGGYSGSSDKYAFGGGTKVEIKR", 11.96),
    ("h4A11.v7.17 (antibody, human IgG1, kappa, N297G, V domains shown) VH: EVQLQESGPGLVKPSETLSLTCTVTGFSLSSYTVNWIRQPAGKGLEWIGYISYGGSAYYASWANGRVTISKDTSKNQVSLKLSSVTAADTAVYYCARHMQVGGAPTGSMAAFDPWGQGTLVTVSS VL: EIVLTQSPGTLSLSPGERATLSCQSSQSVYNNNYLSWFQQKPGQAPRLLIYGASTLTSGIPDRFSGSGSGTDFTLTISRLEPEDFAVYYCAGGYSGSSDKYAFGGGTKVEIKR", 11.89),
    ("4A11 (antibody, V domains shown, anti-TGFβ2/3, recombinant rabbit monoclonal; some paragraphs print the H/L pair as 32/33; also called Rb1.4A11; Rbt 4A11) VH: QSLEESGGRLVTPGTPLTLTCTVSGFSLSSYTVNWVRQAPGKGLEWIGYISYGGSAYYASWANGRFTISKTSATVDLKITSPTTEDTATYFCARHMQVGGAPTGSMAAFDPWGPGTLVTVSS VL: AAVLTQTPSPVSAAVGGTVSISCQSSQSVYNNNYLSWFQQKPGQPPKLLIYGASTLTSGVPSRFKGSGSGTQFTLTISDVQCDDAATYYCAGGYSGSSDKYAFGGGTEVVVKG", 11.80),
    ("h4A11.v7.16 (antibody, human IgG1, kappa, N297G, V domains shown) VH: EVQLQESGPGLVKPSETLSLTCTVTGFSLSSYTVNWIRQPAGKGLEWIGYISYGGSAYYASWANGRVTISKDTSKNQFSLKLSSVTAADTAVYFCARHMQVGGAPTGSMAAFDPWGQGTLVTVSS VL: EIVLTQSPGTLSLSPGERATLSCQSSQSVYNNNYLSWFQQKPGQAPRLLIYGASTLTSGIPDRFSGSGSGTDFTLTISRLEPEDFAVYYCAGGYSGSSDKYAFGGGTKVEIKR", 11.31),
]
